Target: T1, Fc-G236A-MST-HN (human, UniProt P01857-1 104-330 = IgG part, G236A; M252Y; S254T; T256E; H433K; N434F)
T1 construct: domain: Fc fragment; EU numbering
Test: SPR (IBIS MX96), FcγR captured on sensor, Fc fragment titrated, pH 7.4, equilibrium 1:1 fit
RESULT TYPE: Kd (nM)
Give bare numbers, in nM.

human FcγRIIa-131H (receptor, UniProt P12318 34-218, looked up, C-terminal biotin, Bought, C-terminally biotinylated; captured on a streptavidin sensor) QAAAPPKAVLKLEPPWINVLQEDSVTLTCQGARSPESDSIQWFHNGNLIPTHTQPSYRFKANNNDSGEYTCQTGQTSLSDPVHLTVLSEWLVLQTPHLEFQEGETIMLRCHSWKDKPLVKVTFFQNGKSQKFSHLDPTFSIPQANHSHSGDYHCTGNIGYTLFSSKPVTITVQVPSMGSSSPMGI : 189

Here is the next item to consider.
In: Fill in: Kd of human FcγRIIa-131R (receptor, UniProt P12318 34-218, looked up, C-terminal biotin, Bought, C-terminally biotinylated; captured on a streptavidin sensor) QAAAPPKAVLKLEPPWINVLQEDSVTLTCQGARSPESDSIQWFHNGNLIPTHTQPSYRFKANNNDSGEYTCQTGQTSLSDPVHLTVLSEWLVLQTPHLEFQEGETIMLRCHSWKDKPLVKVTFFQNGKSQKFSRLDPTFSIPQANHSHSGDYHCTGNIGYTLFSSKPVTITVQVPSMGSSSPMGI is ___
Out: 269
